assay: chemical genetic growth profiling, strain panel (AID 1159580);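 note: tested at 20 µM; growth read once vehicle control cultures reached saturation at 30 °C; 1 = growth at the plate median or of vehicle wells; lower values mean less growth of the strain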; conditions: S. cerevisiae deletion strains, growth OD, locus YOR290C, strain snf2, hits give low values
About 2,000 (36%) of roughly 5,500 compounds were called active. Inconclusive results (about 18%) are left out. This is one part of the list.
normalized growth overview
Reply briefly: the number, and no unit.

{"columns": ["compound", "normalized growth"],
 "data": [
  ["CN(C)CCOC(c1ccc(Cl)cc1)c1ccccn1 (stereo unspecified)", 1],
  ["O=C1NCC2(CCN(CCc3ccccc3)CC2)O1", 1],
  ["Oc1ccc2c(c1)O[C@H](c1ccc(O)c(O)c1)[C@@H](O)C2", 1.05]
]}

// query Item "Oc1cc(O)c2c(c1)O[C@H](c1ccc(O)c(O)c1)[C@@H](O)C2" has what recorded normalized growth?
// result 0.971

// query Moving on to CC[C@]1(O)CC2CN(CCc3c([nH]c4ccccc34)[C@@](C(=O)OC)(c3cc4c(cc3OC)N(C)[C@H]3[C@@](O)(C(=O)OC)[C@H](OC(C)=O)[C@]5(CC)C=CCN6CC[C@]43[C@@H]65)C2)C1 (stereo partly specified)
// result 1.01

// query Moving on to Clc1ccc(C(OCCN2CCCCC2)c2ccccc2)cc1 (stereo unspecified)
// result 1.01

// query Moving on to "Oc1cc(O)c2c(c1)O[C@H](c1cc(O)c(O)c(O)c1)[C@H](O)C2"
// result 1.02

// query Moving on to "Oc1cc(O)c2c(c1)O[C@H](c1ccc(O)c(O)c1)[C@H](O)C2"
// result 0.99

// query Moving on to C[C@@H]1CC(Cl)CC[C@H]1C(=O)OC(C)(C)C (stereo partly specified)
// result 0.92

// query Moving on to Cc1ccccc1C(OCCN(C)C)c1ccccc1 (stereo unspecified)
// result 1.03

// query Moving on to "CN1CCC(OC(c2ccccc2)c2ccccc2)CC1"
// result 0.93
